Biological target: Bcl-xL, Q07817
Sequence (Q07817 1-209): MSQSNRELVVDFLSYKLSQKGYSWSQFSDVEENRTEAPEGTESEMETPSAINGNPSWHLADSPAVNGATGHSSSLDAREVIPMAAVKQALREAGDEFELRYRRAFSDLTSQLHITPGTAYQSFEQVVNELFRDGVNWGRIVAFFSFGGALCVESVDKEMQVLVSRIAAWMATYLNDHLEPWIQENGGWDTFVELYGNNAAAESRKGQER
Test: peptide SPOT array, c-Myc-tagged receptor at 1 uM or 100 nM, anti-c-Myc-Cy3
measured metric: SPOT signal as a fraction of Bim BH3's signal on the same receptor and array
I only need the number, thanks.

[
  {
    "binder": "RTNNYQLSDEDRKNGVELTSLRQKVA [GRIPAP1]",
    "recorded measurement": 0.05
  },
  {
    "binder": "HPRRESQVRQLAWIGDGVWVSIRLDS [MAPK8IP3]",
    "recorded measurement": 0.03
  },
  {
    "binder": "ACGDSVLARMLRELLDSLRRPQLRLW",
    "recorded measurement": 0.71
  },
  {
    "binder": "ACGDSVLARMDRELGDSLRRPQLRLW",
    "recorded measurement": 0.27
  },
  {
    "binder": "APGEEDLCAAFNVICDNVGKDWRRLA [FADD]",
    "recorded measurement": 0.08
  }
]

input: I have this binder here, PDGLLEFAKRLERWGRGAFGHLRLFQ [LRRC41] , and I need its recorded SPOT signal as a fraction of Bim BH3's signal on the same receptor and array.
output: 0.46

input: I have this binder here, HHSSQEMSSEYREYLDSFGKCPGGRN [PCYT2] , and I need its recorded SPOT signal as a fraction of Bim BH3's signal on the same receptor and array.
output: 0.05
